Source listed as patent US20130178469A1.

assay: Bioavailability and pharmacokinetic profile following intravenous and oral administration; assay type: in vivo, Male Sprague Dawley Rats; conditions: male, Sprague Dawley, rat, plasma, po, 10 mg/kg, PO 10 mg/kg; Rat 1; 6 hr
property-measured: concentration at 6 hr
Units required after the number.

Query string: Which measured concentration at 6 hr value corresponds to CN1CCN(c2cc(N3CCN(C)S3(=O)=O)c3nc(C(=O)NCc4ccc(F)cc4)c(O)c(=O)n3c2)CC1 [Example 3.4] ?
Result string: 2.62 ng/mL
